Experiment: Intrinsic clearance in human liver microsomes
Format: ADME
Conditions: read-out: CLH
Would you mind telling me the reported CLint scaled of each entry?
Kindly answer with a numeric value in mL/min/kg, unit omitted.

State the recorded CLint scaled for this entry: "CC[C@]1(c2cccc(NS(C)(=O)=O)c2)[C@@H]2CN(CC3Cc4ccccc4C3)C[C@@H]21" 19

Which CLint scaled is reported for this compound? "CC[C@]1(c2cccc(NS(C)(=O)=O)c2)[C@@H]2CN(CCCC3(O)CCCCC3)C[C@@H]21" 9

Name the recorded CLint scaled for "CC[C@]1(c2cccc(C(N)=O)c2)[C@@H]2CN(CC3(O)Cc4ccccc4C3)C[C@@H]21" . 11

I am curious: what CLint scaled value has been reported for "CC[C@]1(c2cccc(NS(C)(=O)=O)c2)[C@@H]2CN(CC3(O)Cc4ccccc4C3)C[C@@H]21" ? 12

---

Assay: Half life in rat
Format: ADME, organism-based
Details: in vivo
measured attribute: half-life (h)
Provide the reading as a plain figure in h.

Sample CC[C@]1(c2cccc(NS(C)(=O)=O)c2)[C@@H]2CN(CC3(O)Cc4ccccc4C3)C[C@@H]21 [CP-866087] — what was its half-life? 11

---

Test system: human MDR1 (P-gp)
Experiment: Efflux ratio of apparent permeability from basolateral to apical side over apical to basolateral side in MDCK cells transfected with human MDR1
Assay type: ADME, cell-based, Canis lupus familiaris
Conditions: dog
Would you kindly list efflux ratio for each of these molecules?
Would you mind answering with just the numeric figure?

Query (molecule): "CC[C@]1(c2cccc(C(N)=O)c2)[C@@H]2CN(CC3(O)Cc4ccccc4C3)C[C@@H]21" ; field requested: efflux ratio 2.9

Looking for the measured efflux ratio of "CC[C@]1(c2cccc(NS(C)(=O)=O)c2)[C@@H]2CN(CC3Cc4ccccc4C3)C[C@@H]21" , can you help? 3.5

Return reported efflux ratio; argument: "CC[C@]1(c2cccc(NS(C)(=O)=O)c2)[C@@H]2CN(CCCC3(O)CCCCC3)C[C@@H]21" 6.5

---

Assay: Ratio of drug level in rat brain to plasma at 1 mg/kg, sc at 0.75 hrs time-point
Format: ADME, organism-based
Set-up: dose 1 mg/kg, route subcutaneous
Details: read-out: BPR
measured attribute: Kp at 0.75 h
Output: the number by itself.

Return reported Kp at 0.75 h; argument: "CC[C@]1(c2cccc(NS(C)(=O)=O)c2)[C@@H]2CN(CC3(O)Cc4ccccc4C3)C[C@@H]21" 2

---

Biological target: hERG (KCNH2) (Homo sapiens, UniProt Q12809)
Sequence (Q12809 whole entry): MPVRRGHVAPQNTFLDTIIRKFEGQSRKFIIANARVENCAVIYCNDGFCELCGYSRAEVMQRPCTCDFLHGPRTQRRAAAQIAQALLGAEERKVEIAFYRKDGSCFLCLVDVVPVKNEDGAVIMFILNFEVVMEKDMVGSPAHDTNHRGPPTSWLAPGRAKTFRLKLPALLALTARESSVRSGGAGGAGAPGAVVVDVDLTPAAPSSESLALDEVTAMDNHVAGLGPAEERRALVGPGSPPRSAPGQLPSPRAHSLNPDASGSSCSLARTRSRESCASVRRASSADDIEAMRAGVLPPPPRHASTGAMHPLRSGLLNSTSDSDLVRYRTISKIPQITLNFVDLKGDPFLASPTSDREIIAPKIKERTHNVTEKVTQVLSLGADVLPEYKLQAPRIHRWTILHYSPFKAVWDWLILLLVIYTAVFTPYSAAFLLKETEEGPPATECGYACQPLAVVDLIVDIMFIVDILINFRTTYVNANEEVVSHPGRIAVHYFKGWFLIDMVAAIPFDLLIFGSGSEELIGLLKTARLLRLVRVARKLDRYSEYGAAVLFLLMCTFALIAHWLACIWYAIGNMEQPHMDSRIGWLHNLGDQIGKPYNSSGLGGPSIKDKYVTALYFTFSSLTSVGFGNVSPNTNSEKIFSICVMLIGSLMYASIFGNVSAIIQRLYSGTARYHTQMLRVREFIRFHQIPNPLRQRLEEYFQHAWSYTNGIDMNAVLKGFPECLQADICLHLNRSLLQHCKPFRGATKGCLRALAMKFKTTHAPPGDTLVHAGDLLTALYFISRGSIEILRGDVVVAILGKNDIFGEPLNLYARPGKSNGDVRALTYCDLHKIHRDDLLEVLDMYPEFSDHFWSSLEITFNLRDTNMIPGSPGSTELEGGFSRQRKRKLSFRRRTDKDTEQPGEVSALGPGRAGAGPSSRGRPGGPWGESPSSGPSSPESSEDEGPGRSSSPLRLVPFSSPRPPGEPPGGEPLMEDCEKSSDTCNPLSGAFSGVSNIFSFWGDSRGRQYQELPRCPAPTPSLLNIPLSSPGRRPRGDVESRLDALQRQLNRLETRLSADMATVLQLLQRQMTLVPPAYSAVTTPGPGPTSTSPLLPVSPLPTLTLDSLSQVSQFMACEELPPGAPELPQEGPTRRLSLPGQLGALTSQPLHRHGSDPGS
Assay: Inhibition of human ERG
measured attribute: IC20 (nM)
Output spec: scalar in nM, unitless text.

Which measured IC20 belongs to "CC[C@]1(c2cccc(NS(C)(=O)=O)c2)[C@@H]2CN(CCCC3(O)CCCCC3)C[C@@H]21" , tested on hERG (KCNH2) (Homo sapiens, UniProt Q12809)? 320

---

Assay: Fraction unbound in rat at 1 mg/kg, sc at 0.75 hrs time-point
Format: ADME, organism-based
Design: dose 1 mg/kg, route subcutaneous
Conditions: plasma
measured attribute: fraction unbound at 0.75 h
Respond with the number and no other words.

Recorded fraction unbound at 0.75 h for "CC[C@]1(c2cccc(NS(C)(=O)=O)c2)[C@@H]2CN(CC3(O)Cc4ccccc4C3)C[C@@H]21" , please? 0.034

---

Please go through the items and note down their IC50.
All answers are understood in nM, so give the number only.

What value of IC50 on Voltage-gated inwardly rectifying potassium channel KCNH2 (Homo sapiens) does "CC[C@]1(c2cccc(NS(C)(=O)=O)c2)[C@@H]2CN(CC3Cc4ccccc4C3)C[C@@H]21" have? 326

Find the measured IC50: item "CC[C@]1(c2cccc(NS(C)(=O)=O)c2)[C@@H]2CN(CCCC3(O)CCCCC3)C[C@@H]21" , target or system Voltage-gated inwardly rectifying potassium channel KCNH2 (Homo sapiens). 710

Value wanted: IC50 (Voltage-gated inwardly rectifying potassium channel KCNH2 (Homo sapiens)) of entry "CC[C@]1(c2cccc(C(N)=O)c2)[C@@H]2CN(CC3(O)Cc4ccccc4C3)C[C@@H]21" 2200

---

Biological target: CYP2D6 (Homo sapiens)
Sequence (P10635 whole entry): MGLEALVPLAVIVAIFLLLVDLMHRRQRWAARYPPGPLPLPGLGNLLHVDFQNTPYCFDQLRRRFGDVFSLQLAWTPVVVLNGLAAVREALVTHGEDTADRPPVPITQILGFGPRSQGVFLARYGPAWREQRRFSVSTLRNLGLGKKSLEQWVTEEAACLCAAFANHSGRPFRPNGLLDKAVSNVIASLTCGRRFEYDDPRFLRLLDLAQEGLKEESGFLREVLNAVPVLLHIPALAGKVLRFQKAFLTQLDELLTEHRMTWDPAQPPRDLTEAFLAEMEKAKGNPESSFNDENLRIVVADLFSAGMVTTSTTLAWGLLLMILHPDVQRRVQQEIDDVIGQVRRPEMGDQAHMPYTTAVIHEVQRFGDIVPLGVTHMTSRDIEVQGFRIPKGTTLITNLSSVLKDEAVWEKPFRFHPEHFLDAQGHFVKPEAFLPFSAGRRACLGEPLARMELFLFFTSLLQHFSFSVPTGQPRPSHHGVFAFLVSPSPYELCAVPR
Test: Inhibition of CYP2D6 (unknown origin) at 3 uM after 8 mins
Type: ADME
Exercise: state measured inhibition at 8 min, 3 µM for each of the compounds provided.
Record the value in %, omitting the unit from your answer.

inhibition at 8 min, 3 µM lookup needed for "CC[C@]1(c2cccc(NS(C)(=O)=O)c2)[C@@H]2CN(CCCC3(O)CCCCC3)C[C@@H]21" , thanks. 14

Endpoint output: inhibition at 8 min, 3 µM of "CC[C@]1(c2cccc(NS(C)(=O)=O)c2)[C@@H]2CN(CC3(O)Cc4ccccc4C3)C[C@@H]21" . Value? 6

May I ask what inhibition at 8 min, 3 µM has been recorded for "CC[C@]1(c2cccc(NS(C)(=O)=O)c2)[C@@H]2CN(CC3Cc4ccccc4C3)C[C@@H]21" ? 35

# lookup: inhibition at 8 min, 3 µM of "CC[C@]1(c2cccc(C(N)=O)c2)[C@@H]2CN(CC3(O)Cc4ccccc4C3)C[C@@H]21" 17

---

Test: Clearance in rat
Type: ADME, organism-based
Conditions: in vivo
measured attribute: clearance
Write the numeric value and append its unit.

Quick one: clearance of "CC[C@]1(c2cccc(NS(C)(=O)=O)c2)[C@@H]2CN(CC3(O)Cc4ccccc4C3)C[C@@H]21" ? 120 mL/min/kg

---

Molecular target: Mu-type opioid receptor (Homo sapiens)
Sequence (P35372 whole entry): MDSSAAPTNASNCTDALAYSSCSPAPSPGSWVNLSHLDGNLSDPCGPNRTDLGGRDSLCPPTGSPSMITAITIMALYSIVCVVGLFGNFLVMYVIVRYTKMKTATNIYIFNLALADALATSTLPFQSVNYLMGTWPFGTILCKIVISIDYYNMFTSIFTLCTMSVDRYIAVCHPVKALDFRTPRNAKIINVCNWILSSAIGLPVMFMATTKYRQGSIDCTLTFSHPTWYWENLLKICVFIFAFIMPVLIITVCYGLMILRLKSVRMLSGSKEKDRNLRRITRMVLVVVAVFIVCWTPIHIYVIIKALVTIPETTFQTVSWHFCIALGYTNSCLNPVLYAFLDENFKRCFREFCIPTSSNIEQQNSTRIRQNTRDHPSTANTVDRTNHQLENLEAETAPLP
Assay: Displacement of [3H]diprenorphine from human mu opioid receptor expressed in cells after 1 hr by liquid scintillation counting analysis
Format: cell-based
Provide the reported Ki of each item.
Lab book: enter the figure in nM, no units written.

Item under review: "CC[C@]1(c2cccc(C(N)=O)c2)[C@@H]2CN(CC3(O)Cc4ccccc4C3)C[C@@H]21" . Reported Ki? 3.5

Fill in the blank: the reported Ki of "CC[C@]1(c2cccc(NS(C)(=O)=O)c2)[C@@H]2CN(CCCC3(O)CCCCC3)C[C@@H]21" is ____. 2

Which Ki is listed for "CC[C@]1(c2cccc(NS(C)(=O)=O)c2)[C@@H]2CN(CC3(O)Cc4ccccc4C3)C[C@@H]21" ? 1
